Origin of values: paper PMC9482650

Biological target: T1, GRIP1_5, Q9Y3R0
T1 sequence (Q9Y3R0 568-668, limits assumed, looked up): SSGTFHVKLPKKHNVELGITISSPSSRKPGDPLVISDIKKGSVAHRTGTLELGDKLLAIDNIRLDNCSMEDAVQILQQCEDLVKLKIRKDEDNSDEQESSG
Assay: holdup assay
Set-up: key: below the threshold = too weak to quantify, mostly under pKd 3.1 to 4
Settings: plain residues with an end cap or a label only (N-terminal biotin on a linker: ado-ado)
readout_type: pKd

INSERT INTO results (binder, result) VALUES
  ('GSGAVEMESV [AQP6, Q13520]', 'below the threshold'),
  ('SGSLKLMTTV [DACT1, Q9NYF0]', 'below the threshold'),
  ('GNSVLKSTQF [SLC22A12, Q96S37]', 'below the threshold'),
  ('EVNETDDTKM [KCNJ1, P48048]', 'below the threshold'),
  ('RKPKPSSSCC [RAB9A, P51151]', 'below the threshold'),
  ('EVEEFPETSV [TRPV3, Q8NET8]', 'below the threshold'),
  ('TKGPRGPTRV [SAPCD1, Q5SSQ6]', 'below the threshold'),
  ('TSSMRGMDAV [RSRC2, Q7L4I2]', 'below the threshold'),
  ('RHGSCVETSL [TMEM151B, Q8IW70]', 'below the threshold'),
  ('DDEDRLVIEI [ZNF831, Q5JPB2]', 'below the threshold'),
  ('VKPQVSESKL [ACOT8, O14734]', 'below the threshold'),
  ('QPCFNKLFPL [LPXN, O60711]', 'below the threshold'),
  ('QGLAERISVL [PRKD2, Q9BZL6]', 'below the threshold'),
  ('PRAEAEDSFL [PDGFRB, P09619]', 3.53),
  ('SNAGNTATKA [NOSTRIN, Q8IVI9]', 'below the threshold'),
  ('DDENIRTSDV [PLEKHA2, Q9HB19]', 'below the threshold'),
  ('VYPNAKVELV [PDLIM4_iso2, P50479;P50479-1]', 'below the threshold'),
  ('TASPAKETSF [SLC2A7, Q6PXP3]', 'below the threshold'),
  ('LGRSTPQSEV [DGKH, Q86XP1]', 'below the threshold'),
  ('SAKVRTVTSV [RASL11B, Q9BPW5]', 'below the threshold'),
  ('LPAHHNATRL [SLC34A1, Q06495;Q06495-1]', 'below the threshold'),
  ('KKAPTNEFYA [SDC4, P31431]', 'below the threshold'),
  ('VNKSKLLTDV [KCNA1, Q09470]', 'below the threshold'),
  ('RRLPGKETMA [GRIK2, Q13002]', 'below the threshold'),
  ('LPHPHSTTRV [NLGN2, Q8NFZ4]', 'below the threshold'),
  ('IKAIVDLTGL [TRAF2, Q12933]', 'below the threshold'),
  ('PDGQCTVTEV [RNF146, Q9NTX7]', 'below the threshold'),
  ('YLEPVLSSEL [ATP2A2, P16615;P16615-3]', 'below the threshold'),
  ('QSARLWETSI [ADAM22, Q9P0K1]', 'below the threshold'),
  ('VDSTVKVWTC [TRAF7, Q6Q0C0]', 'below the threshold'),
  ('YRLAQESGLV [ABCC6, O95255]', 'below the threshold'),
  ('PAPSSGKDYV [CLDN1, O95832]', 'below the threshold');
